Origin of measurements: patent US20230132973A1

- Tested on: CQ-sensitive 3D7 strain of P. falciparum
- Method notes: SYBR green I-based parasite growth inhibition assay, 3D7 strain
- Type: cell-based, Plasmodium falciparum
- Test parameters: Pf 3D7, 0.078 μM to 10 μM, 72 h; read-out: EC50
Observable: EC50

q: Quick one: give measured EC50 for COc1cc2c(cc1OC)C1(NCC2)C(=O)Nc2ccc(Cl)cc21 (stereo not shown) [Compound 8b]
a: < 2 µM

* * *

melting point reference

{"Molecule": "COc1cc2c(cc1OC)C1(NCC2)C(=O)Nc2ccc(F)cc21 (stereo not shown) [Compound 8o]", "Observable": "melting point", "Result": "98 to 99 °C"}
{"Molecule": "COc1cc2c(cc1OC)C1(NCC2)C(=O)Nc2ccc([N+](=O)[O-])cc21 (stereo not shown) [Compound 8e]", "Observable": "melting point", "Result": "174 to 175 °C"}

q: Answer with the recorded melting point for the molecule listed here: COc1cc2c(cc1OC)C1(NCC2)C(=O)Nc2cc(F)c(F)cc21 (stereo not shown) [Compound 8g]
a: 220 to 221 °C

q: Answer with reported melting point of COc1cc2c(cc1OC)C1(NCC2)C(=O)Nc2ccc(N)cc21 (stereo not shown) [Compound 8f]
a: 186 to 187 °C

* * *

- Test system: Human Liposarcoma (SW872) cells
- Method notes: MTT cell proliferation (cytotoxicity) assay, SW872 cells
- Assay type: cell-based
- Test parameters: SW872, MTT
Observable: CC50

q: Quote CC50 reported for COc1cc2c(cc1OC)C1(NCC2)C(=O)Nc2ccc(Cl)cc21 (stereo not shown) please.
a: > 100 µM
